# assayed.system: HLA-A*68:02
# test.name: IEDB peptide-MHC binding, purified MHC/competitive/radioactivity; filed as Kd, often an IC50 or EC50 that approximates it; bounds were set here for any values at or beyond the usual limits of such assays
# condition.notes: source organism: Dengue virus 4 Dominica/814669/1981
readout.kind: pKd
Keep it numeric: pKd is minus log10 of the concentration in mol/L.

In one line, give reported pKd of the entry TASLVMLLV .
7.08

====

# assayed.system: HLA-A*69:01
# test.name: IEDB peptide-MHC binding, purified MHC/direct/fluorescence; filed as Kd, often an IC50 or EC50 that approximates it; bounds were set here for any values at or beyond the usual limits of such assays
# condition.notes: source organism: Cryptosporidium parvum
pKd: −log10 of the molar value.
readout.kind: pKd

Consider the sequence IINAHRIPK tested on HLA-A*69:01; state its pKd.
≤ 4.70
